Origin of the recorded values: ChEMBL document CHEMBL3132812

target: UniProt:P00734
QUANTITY KIND: IC50 (nM)
Numbers only; they are read as nM.

Inquiry: Endpoint output: IC50 of Cc1nc(N)ccc1CNC(=O)Cn1c(C)cnc(NCCc2ccccc2)c1=O [L-375378] . Value?
Reply text: 0.8

---

Measured IC50 accompanies every entry in the list below.
biological target: Trypsin (Homo sapiens, UniProt P07477+P07478+P35030); assay: Inhibition of trypsin (unknown origin); assay type: protein assay
Respond with the bare value in nM.

Inquiry: Suppose we examine the molecule N#Cc1cnc(NCC(F)(F)c2ccccn2)c(=O)n1CC(=O)NCc1ncccc1F ; what IC50 value has been reported?
Reply text: 213

Inquiry: Consider the molecule Cc1cnc(NCC(F)(F)c2ccccn2)c(=O)n1CC(=O)NCc1ncccc1F and give its measured IC50.
Reply text: 252

Inquiry: Given the molecule Cc1nc(N)ccc1CNC(=O)Cn1c(C)cnc(NCC(F)(F)c2ccccn2)c1=O , what is its reported IC50?
Reply text: 800

Now for another entry.
Inquiry: Consider the molecule Cc1nc(N)ccc1CNC(=O)Cn1c(C)cnc(NCCc2ccccc2)c1=O and give its measured IC50.
Reply text: 1800

---

assay: Drug metabolism in rat liver microsomes assessed as N-demethylation; assay type: ADME; conditions: read-out: Drug metabolism
QUANTITY KIND: metabolised (%)
Just the number in %, nothing appended.

Inquiry: GET /values?readout=metabolised&item= COc1ccc([C@H]2Cc3c(cccc3C(F)(F)F)N(CCN(C)C)C(=O)[C@H]2OC(C)=O)cc1
Reply text: 31

---

assay: Half life in monkey; type: ADME, organism-based, Macaca mulatta; details: rhesus monkey, in vivo
Reported half-life values for the following compounds.
# value in min; strip the unit string

Inquiry: Look up half-life for this compound: C[C@H](C#Cc1ccc(Oc2ccc(F)cc2)o1)N(O)C(N)=O
Reply text: 444

# input for lookup
Inquiry: Which half-life value is on record for CC(c1ccoc1)N(O)C(N)=O (stereo not drawn) ?
Reply text: 186

---

assay: Drug metabolism in rat liver microsomes assessed as O-demethylation; format: ADME; conditions: read-out: Drug metabolism
QUANTITY KIND: metabolised (%)
Entry rule: numbers only, all in %.

Inquiry: Given the molecule COc1ccc([C@H]2Cc3c(cccc3C(F)(F)F)N(CCN(C)C)C(=O)[C@H]2OC(C)=O)cc1 , what is its reported metabolised?
Reply text: 8

---

assay: Drug metabolism in rat liver microsomes assessed as oxidative deamination; assay type: ADME; details: read-out: Drug metabolism
QUANTITY KIND: metabolised
Your reply should be a number followed by the unit it is expressed in.

Inquiry: Look up metabolised for this compound: COc1ccc([C@H]2Cc3c(cccc3C(F)(F)F)N(CCN(C)C)C(=O)[C@H]2OC(C)=O)cc1
Reply text: 53%

---

experiment: Lipophilicity, log D of the compound at pH 7.4; assay type: physicochemical; conditions: buffer
QUANTITY KIND: logD
Number only, please.

Inquiry: Item under review: CNS(=O)(=O)Cc1ccc2[nH]cc(CCN(C)C)c2c1 . Reported logD?
Reply text: -1.7

---

assay: Half life in human plasma at 600 mg, po; type: ADME, organism-based
QUANTITY KIND: half-life (h)
Please state the figure in h; there is no need to write the unit.

Inquiry: Need half-life, item CC(c1cc2ccccc2s1)N(O)C(N)=O (stereo unspecified) [ZILEUTON]
Reply text: 3

---

test: Drug metabolism in human; type: ADME, organism-based; conditions: in vivo, read-out: Drug metabolism
QUANTITY KIND: metabolised (%)
Expressed in %, but write only the number.

Inquiry: For the compound shown here, [3H]C([3H])([3H])Oc1ccc(C(CN(C([3H])([3H])[3H])C([3H])([3H])[3H])C2(O)CCCCC2)cc1 (stereo unspecified) , give the reported metabolised.
Reply text: 50
